Where do the numbers come from? From patent US20230242651A1.

measured_on: T1, human interleukin-23 receptor (IL23R) (human, UniProt Q5VWK5 24-355, limits assumed)
T1 construct: also called human IL23R
T1 sequence (looked up): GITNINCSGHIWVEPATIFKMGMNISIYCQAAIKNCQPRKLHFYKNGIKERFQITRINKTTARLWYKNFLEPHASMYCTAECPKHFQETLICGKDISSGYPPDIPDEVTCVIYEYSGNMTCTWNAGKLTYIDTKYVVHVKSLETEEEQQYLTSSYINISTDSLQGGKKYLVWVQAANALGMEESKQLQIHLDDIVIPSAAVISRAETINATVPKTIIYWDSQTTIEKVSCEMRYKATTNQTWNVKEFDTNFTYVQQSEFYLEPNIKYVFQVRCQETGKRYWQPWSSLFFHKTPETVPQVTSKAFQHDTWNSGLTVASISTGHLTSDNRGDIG
assay_notes: SPR, scFv
kon by entry:
Enter your answer as a number in M⁻¹ s⁻¹; do not include the unit.

{"columns": ["binder", "reported_endpoint", "assay_value"],
 "data": [
  ["Vκ2/VH5 consensus (uncapped), human IL23R specific scFv (scFv, scFv VL-linker-VH, made in E. coli; Vκ framework IV (uncapped, full consensus); also called Vκ2VH5 uncapped) scFv: DIVMTQSPLSLPVTPGEPASISCQASENIYSFLAWYLQKPGQSPQLLIYSASKLAAGVPDRFSGSGSGTDFTLKISRVEAEDVGVYYCQQTNRYSNPDIYNVFGQGTKVEIKRGGGGSGGGGSGGGGSGGGGSEVQLVQSGAEVKKPGESLKISCKGSGIDFNSNYYMCWVRQMPGKGLEWMGCIYVGSHVNTYYANWAKGQVTISADKSISTAYLQWSSLKASDTAMYYCATSGSSVLYFKFWGQGTLVTVSS", "kon", "1.57e+06"],
  ["Vκ2/VH6 consensus λ-capped, human IL23R specific scFv (scFv, scFv VL-linker-VH, made in E. coli; also called Vκ2VH6 capped) scFv: DIVMTQSPLSLPVTPGEPASISCQASENIYSFLAWYLQKPGQSPQLLIYSASKLAAGVPDRFSGSGSGTDFTLKISRVEAEDVGVYYCQQTNRYSNPDIYNVFGGGTKLTVLGGGGGSGGGGSGGGGSGGGGSQVQLQQSGPGLVKPSQTLSLTCAISGIDFNSNYYMCWIRQSPGRGLEWLGCIYVGSHVNTYYANWAKGRITINPDTSKNQFSLQLNSVTPEDTAVYYCATSGSSVLYFKFWGQGTLVTVSS", "kon", 535000],
  ["Vκ1/VH4 consensus λ-capped, human IL23R specific scFv (scFv, scFv VL-linker-VH, made in E. coli; also called Vκ1VH4 capped) scFv: DIQMTQSPSSLSASVGDRVTITCQASENIYSFLAWYQQKPGKAPKLLIYSASKLAAGVPSRFSGSGSGTDFTLTISSLQPEDFATYYCQQTNRYSNPDIYNVFGGGTKLTVLGGGGGSGGGGSGGGGSGGGGSQVQLQESGPGLVKPSETLSLTCTVSGIDFNSNYYMCWIRQPPGKGLEWIGCIYVGSHVNTYYANWAKGRVTISVDTSKNQFSLKLSSVTAADTAVYYCATSGSSVLYFKFWGQGTLVTVSS", "kon", "4.2e+06"],
  ["Vκ2/VH4 consensus (uncapped), human IL23R specific scFv (scFv, scFv VL-linker-VH, made in E. coli; Vκ framework IV (uncapped, full consensus); also called Vκ2VH4 uncapped) scFv: DIVMTQSPLSLPVTPGEPASISCQASENIYSFLAWYLQKPGQSPQLLIYSASKLAAGVPDRFSGSGSGTDFTLKISRVEAEDVGVYYCQQTNRYSNPDIYNVFGQGTKVEIKRGGGGSGGGGSGGGGSGGGGSQVQLQESGPGLVKPSETLSLTCTVSGIDFNSNYYMCWIRQPPGKGLEWIGCIYVGSHVNTYYANWAKGRVTISVDTSKNQFSLKLSSVTAADTAVYYCATSGSSVLYFKFWGQGTLVTVSS", "kon", "1.26e+06"],
  ["Vκ1/VH5 consensus (uncapped), human IL23R specific scFv (scFv, scFv VL-linker-VH, made in E. coli; Vκ framework IV (uncapped, full consensus); also called Vκ1VH5 uncapped) scFv: DIQMTQSPSSLSASVGDRVTITCQASENIYSFLAWYQQKPGKAPKLLIYSASKLAAGVPSRFSGSGSGTDFTLTISSLQPEDFATYYCQQTNRYSNPDIYNVFGQGTKVEIKRGGGGSGGGGSGGGGSGGGGSEVQLVQSGAEVKKPGESLKISCKGSGIDFNSNYYMCWVRQMPGKGLEWMGCIYVGSHVNTYYANWAKGQVTISADKSISTAYLQWSSLKASDTAMYYCATSGSSVLYFKFWGQGTLVTVSS", "kon", "2.25e+06"]
]}

// sample Vκ3/VH6 consensus λ-capped, human IL23R specific scFv (scFv, scFv VL-linker-VH, made in E. coli; also called Vκ3VH6 capped) scFv: DIVLTQSPATLSLSPGERATLSCQASENIYSFLAWYQQKPGQAPRLLIYSASKLAAGVPARFSGSGSGTDFTLTISSLEPEDFAVYYCQQTNRYSNPDIYNVFGGGTKLTVLGGGGGSGGGGSGGGGSGGGGSQVQLQQSGPGLVKPSQTLSLTCAISGIDFNSNYYMCWIRQSPGRGLEWLGCIYVGSHVNTYYANWAKGRITINPDTSKNQFSLQLNSVTPEDTAVYYCATSGSSVLYFKFWGQGTLVTVSS , its kon was 1.43e+06

// sample Vκ2/VH3 consensus λ-capped, human IL23R specific scFv (scFv, scFv VL-linker-VH, made in E. coli; also called Vκ2VH3 capped) scFv: DIVMTQSPLSLPVTPGEPASISCQASENIYSFLAWYLQKPGQSPQLLIYSASKLAAGVPDRFSGSGSGTDFTLKISRVEAEDVGVYYCQQTNRYSNPDIYNVFGGGTKLTVLGGGGGSGGGGSGGGGSGGGGSEVQLVESGGGLVQPGGSLRLSCAASGIDFNSNYYMCWVRQAPGKGLEWVSCIYVGSHVNTYYANWAKGRFTISRDNSKNTLYLQMNSLRAEDTAVYYCATSGSSVLYFKFWGQGTLVTVSS , its kon was 1.95e+06

// sample Vκ3/VH2 consensus λ-capped, human IL23R specific scFv (scFv, scFv VL-linker-VH, made in E. coli; also called Vκ3VH2 capped) scFv: DIVLTQSPATLSLSPGERATLSCQASENIYSFLAWYQQKPGQAPRLLIYSASKLAAGVPARFSGSGSGTDFTLTISSLEPEDFAVYYCQQTNRYSNPDIYNVFGGGTKLTVLGGGGGSGGGGSGGGGSGGGGSQVQLKESGPALVKPTQTLTLTCTFSGIDFNSNYYMCWIRQPPGKALEWLACIYVGSHVNTYYANWAKGRLTISKDTSKNQVVLTMTNMDPVDTATYYCATSGSSVLYFKFWGQGTLVTVSS , its kon was 1.66e+06

// sample Vκ2/VH1A consensus λ-capped, human IL23R specific scFv (scFv, scFv VL-linker-VH, made in E. coli; also called Vκ2VH1A capped) scFv: DIVMTQSPLSLPVTPGEPASISCQASENIYSFLAWYLQKPGQSPQLLIYSASKLAAGVPDRFSGSGSGTDFTLKISRVEAEDVGVYYCQQTNRYSNPDIYNVFGGGTKLTVLGGGGGSGGGGSGGGGSGGGGSQVQLVQSGAEVKKPGSSVKVSCKASGIDFNSNYYMCWVRQAPGQGLEWMGCIYVGSHVNTYYANWAKGRVTITADESTSTAYMELSSLRSEDTAVYYCATSGSSVLYFKFWGQGTLVTVSS , its kon was 2.39e+06
